Source: ChEMBL document CHEMBL1147846

measurement.description: Inhibition of histamine release from rat mast cells
Type: functional
settings: Rattus norvegicus; read-out: IC50
property.label: IC50

[
  {
    "compound.string": "COc1ccc(OC)c(C(=O)/C=C/c2ccc(C)s2)c1",
    "measured.value": "> 30 µM"
  },
  {
    "compound.string": "COc1ccc(OC)c(C(=O)/C=C/c2ccc(Br)o2)c1",
    "measured.value": "> 30 µM"
  },
  {
    "compound.string": "CC(=O)O[C@H](CC=C(C)C)C1=CC(=O)c2c(O)ccc(O)c2C1=O",
    "measured.value": "2 µM"
  },
  {
    "compound.string": "COc1ccc(OC)c(C(=O)/C=C/c2ccc(OC/C=C/c3ccccc3)cc2)c1",
    "measured.value": "> 30 µM"
  },
  {
    "compound.string": "COc1ccc(OC)c(C(=O)/C=C/c2cccs2)c1",
    "measured.value": "> 30 µM"
  },
  {
    "compound.string": "COc1ccc(OC)c(C(=O)/C=C/c2ccco2)c1",
    "measured.value": "> 30 µM"
  }
]

---

Consider the following compounds and their measured pIC50 readings.
measurement.description: Cytotoxicity against human Hep 3B cells by MTT microassay
Assay type: functional, cell-based, Hep 3B2
settings: Hep3B
pIC50: −log10 of the molar value.
property.label: pIC50

[
  {
    "compound": "COc1ccc(OC)c(C(=O)/C=C/c2ccc(C)o2)c1",
    "measured.value": 4.58
  },
  {
    "compound": "COc1ccc(OC)c(C(=O)/C=C/c2ccc(OC(=O)/C=C/c3ccc(C)cc3)cc2)c1",
    "measured.value": 4.54
  },
  {
    "compound": "COc1ccc(OC)c(C(=O)/C=C/c2ccsc2)c1",
    "measured.value": 5.24
  },
  {
    "compound": "COc1ccc(OC)c(C(=O)/C=C/c2cccs2)c1",
    "measured.value": 5.08
  },
  {
    "compound": "COc1ccc(OC)c(C(=O)/C=C/c2ccc(OC/C=C/c3ccccc3)cc2)c1",
    "measured.value": 4.76
  },
  {
    "compound": "COc1ccc(OC)c(C(=O)/C=C/c2ccc(C)s2)c1",
    "measured.value": 5.47
  },
  {
    "compound": "O=c1[nH]cc(F)c(=O)[nH]1 [FLUOROURACIL]",
    "measured.value": 6.22
  },
  {
    "compound": "COc1ccc(OC)c(C(=O)/C=C/c2ccc(OC(=O)/C=C/c3cc(OC)c(OC)c(OC)c3)cc2)c1",
    "measured.value": 4.63
  },
  {
    "compound": "COc1ccc(OC)c(C(=O)/C=C/c2ccco2)c1",
    "measured.value": 4.72
  },
  {
    "compound": "COc1ccc(OC)c(C(=O)/C=C/c2ccc(Br)o2)c1",
    "measured.value": 4.96
  },
  {
    "compound": "COc1ccc(OC)c(C(=O)/C=C/c2ccoc2)c1",
    "measured.value": 4.92
  },
  {
    "compound": "COc1ccc(OC)c(C(=O)/C=C/c2sccc2C)c1",
    "measured.value": 4.78
  },
  {
    "compound": "COc1ccc(/C=C/C(=O)Oc2ccc(/C=C/C(=O)c3cc(OC)ccc3OC)cc2)cc1",
    "measured.value": 4.37
  }
]
